test system: HepG2; test: GSK_TCMDC: Percent inhibition of human HepG2 cell line. Test compounds present at 10uM.; type: functional
Parameter Inhibition: see the listing below.

// known answers, use as guide
> print(dat)
                                   molecule  measurement.target   parameter  experimental.value
1  COc1cccc(C(=O)Nc2ccc(Nc3nc(C)cc(N(C)C)n3)cc2)c1OC               HepG2  Inhibition                  0%
2  O=C(c1ccc(F)c2ccccc12)N1CCc2cc3nccc(N4CCN5CCC[C@H]5C4)c3cc21               HepG2  Inhibition                  0%
3  N#Cc1ccc(N2CCN(Cc3ccc(-c4ccc(-c5nc6cc(F)ccc6[nH]5)s4)cc3)CC2)nc1.O=C(O)C(F)(F)F               HepG2  Inhibition                 12%
4  O=S(=O)(Nc1ccc(CCN2CCC(N3CCCCC3)CC2)cc1)c1cccc2cccnc12               HepG2  Inhibition                 14%
5  CS(=O)(=O)c1ccc(CNCc2ccc(-c3cccc(-c4nc5cc(C(F)(F)F)ccc5[nH]4)c3)cc2)cc1.O=C(O)C(F)(F)F               HepG2  Inhibition                 54%
6  O=C(Nc1ccccc1-c1ccccc1)C1CCCN1C(=O)Nc1ccc(Cl)cc1 (centres undefined)               HepG2  Inhibition                  0%

stdin: Given the molecule COc1ccc2nccc([C@@H](O)CN3CCC(NC(=O)c4cccc(-c5cc(C)no5)c4)CC3)c2c1 , what is its reported Inhibition?
stdout: 19%

stdin: Try COc1cc2c(cc1N1CC(C)NC(C)C1)N(C(=O)c1ccc(-c3ccc(-c4ncc[nH]4)cc3C)cc1)CC2 (centres undefined) next.
stdout: 7%

stdin: Same again, this time with O=C(C=Cc1ccc(Cl)c(Cl)c1)NCCCCCN1CCC(CCCNS(=O)(=O)c2cccc(C(F)(F)F)c2)CC1
stdout: 99%

Origin of values: ChEMBL document CHEMBL1157539
